- experiment: Toxicity (LD50, TD50) in the mouse
- conditionSet: in vivo, named in the same clause as the oral LD50, read-out: approximate TD50
measurementType: TD50

Problem: # get_value(readout='TD50', item= O=C(CS)Nc1ccc(C(=O)O)cc1 )
Result: ~250 mg/kg

---

- experiment: Toxicity (LD50, TD50) in the mouse
- conditionSet: in vivo, oral, read-out: approximate LD50
measurementType: LD50

Problem: # get_value(readout='LD50', item= O=C(CS)Nc1ccc(C(=O)O)cc1 )
Result: ~2000 mg/kg

---

- experiment: Toxicity (LD50, TD50) in the mouse
- conditionSet: in vivo, ip, intraperitoneally, read-out: LD50
measurementType: LD50 (mg/kg)
Please give a number only; it is taken to be in mg/kg.

Problem: # get_value(readout='LD50', item= O=C(CS)Nc1ccc(C(=O)O)cc1 )
Result: 1110
